Listed here: items and their measured % of parent compd remaining after 45 min.
Target: aldehyde oxidase (Homo sapiens)
Sequence (Q06278 whole entry): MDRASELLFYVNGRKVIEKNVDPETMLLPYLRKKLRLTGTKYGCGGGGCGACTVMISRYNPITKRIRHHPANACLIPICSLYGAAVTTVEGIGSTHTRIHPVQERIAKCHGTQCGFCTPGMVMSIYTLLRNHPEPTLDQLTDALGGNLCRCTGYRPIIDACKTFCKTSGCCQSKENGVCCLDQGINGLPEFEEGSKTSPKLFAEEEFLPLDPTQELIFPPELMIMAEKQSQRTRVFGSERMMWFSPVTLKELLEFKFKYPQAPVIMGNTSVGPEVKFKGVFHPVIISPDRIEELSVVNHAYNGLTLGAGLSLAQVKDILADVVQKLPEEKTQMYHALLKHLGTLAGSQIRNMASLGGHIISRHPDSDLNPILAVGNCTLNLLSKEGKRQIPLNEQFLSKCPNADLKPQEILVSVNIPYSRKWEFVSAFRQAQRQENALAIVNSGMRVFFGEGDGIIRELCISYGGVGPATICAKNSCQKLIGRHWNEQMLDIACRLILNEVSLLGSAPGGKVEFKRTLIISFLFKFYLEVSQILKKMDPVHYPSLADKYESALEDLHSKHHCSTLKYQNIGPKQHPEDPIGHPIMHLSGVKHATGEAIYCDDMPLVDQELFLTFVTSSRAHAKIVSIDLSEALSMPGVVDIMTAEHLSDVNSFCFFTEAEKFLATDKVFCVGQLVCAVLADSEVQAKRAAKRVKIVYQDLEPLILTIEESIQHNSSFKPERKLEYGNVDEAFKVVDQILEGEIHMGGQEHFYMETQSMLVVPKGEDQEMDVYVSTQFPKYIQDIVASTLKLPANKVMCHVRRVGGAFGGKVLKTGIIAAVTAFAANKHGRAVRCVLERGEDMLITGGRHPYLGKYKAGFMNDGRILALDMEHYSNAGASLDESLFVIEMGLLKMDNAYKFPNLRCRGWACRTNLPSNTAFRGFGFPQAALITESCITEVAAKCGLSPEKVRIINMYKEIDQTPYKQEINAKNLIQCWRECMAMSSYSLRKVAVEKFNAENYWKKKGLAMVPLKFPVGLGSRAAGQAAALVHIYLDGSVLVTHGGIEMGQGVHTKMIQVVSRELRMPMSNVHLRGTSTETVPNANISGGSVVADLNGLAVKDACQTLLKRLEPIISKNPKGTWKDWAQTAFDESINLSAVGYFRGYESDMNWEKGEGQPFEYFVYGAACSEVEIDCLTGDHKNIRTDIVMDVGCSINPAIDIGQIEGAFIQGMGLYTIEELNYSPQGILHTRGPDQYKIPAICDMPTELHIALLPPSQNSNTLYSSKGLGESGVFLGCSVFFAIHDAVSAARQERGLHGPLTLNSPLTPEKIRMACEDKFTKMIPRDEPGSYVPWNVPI
Conditions: human, cytosol, 0.75 h, 1 µM
Give a bare numeral; the unit % is implied.

>>> measurement("Cn1cc(-c2ccc(-c3cncc4ccc(C(=O)N5CC(F)(F)C5)cc34)cc2)cn1")
0
>>> measurement("COC1CN(C(=O)c2ccc3cncc(-c4ccc5c(cnn5CC(C)(C)O)c4)c3c2)C1")
2
>>> measurement("COC1CN(C(=O)c2ccc3cncc(-c4ccc5c(cnn5CC(C)(C)O)c4)c3n2)C1")
0

Summary for this molecule, CNC(=O)c1ccc2cncc(-c3ccc(-c4cnn(C)c4)cc3)c2c1 : % of parent compd remaining after 45 min is 0

Sample COC1CN(C(=O)c2ccc3cncc(-c4ccc(-c5cnn(CC(C)(C)O)c5)cc4)c3n2)C1 ; % of parent compd remaining after 45 min observed: 0

The recorded % of parent compd remaining after 45 min for entry CNC(=O)c1ccc2c(N)ncc(-c3ccc4c(c3)CS(=O)(=O)N4)c2n1 equals 100

---

Assay: in vitro
Conditions: rat, microsomes
Recorded log10 of microsomal CLint at 1 µM values for a group of molecules are listed next.
Please keep in mind that the values are log10 of microsomal CLint at 1 µM expressed in µL/min/mg.

>>> measurement("Cn1cc(-c2ccc(-c3cncc4ccc(-c5ncco5)nc34)cc2)cn1")
2.90

Input Cn1cc(-c2ccc(-c3cnc(N)c4ccc(C(=O)N5CC(C)(F)C5)nc34)cc2)cn1 . Output log10 of microsomal CLint at 1 µM: 1.38

Entry Cn1cc(-c2ccc(-c3cncc4ccc(-c5ccnn5C)nc34)cc2)cn1 ; log10 of microsomal CLint at 1 µM = 2.88

The recorded log10 of microsomal CLint at 1 µM for entry COC1CN(C(=O)c2ccc3cncc(-c4ccc(-c5cnn(C)c5)cc4)c3c2)C1 equals 2.53

molecule Cn1cc(-c2ccc(-c3cncc4ccc(-c5nccn5C)cc34)cc2)cn1 , log10 of microsomal CLint at 1 µM observed: 2.49

---

Assay: in vivo
Conditions: mouse, po, 0.5 mg/kg
measuredQuantity: bioavailability (%)
Respond numerically; units are % and should not be typed.

bioavailability recorded for this molecule, COC1CN(C(=O)c2ccc3c(N)ncc(-c4ccc(-c5cnn(C)c5)cc4)c3n2)C1 , is 18

---

Entries and their microsomal CLint
Assay: in vitro
Conditions: human, microsomes
Use µL/min/mg as the unit, but write only the number.

>>> measurement("COC1(C)CN(C(=O)c2ccc3c(N)ncc(-c4ccc(-c5cnn(C)c5)cc4)c3n2)C1")
25

microsomal CLint measured on CNC(=O)c1ccc2c(N)ncc(-c3ccc4c(c3)CS(=O)(=O)N4C)c2n1 = 18

---

Experiment: in vitro
Conditions: human, microsomes
Each record here notes measured microsomal CLint at 1 µM.
Give a bare numeral; the unit µL/min/mg is implied.

>>> measurement("Cn1cc(-c2ccc(-c3cncc4ccc(C(=O)NC5CC5)cc34)cc2)cn1 [Compound 28]")
31

Consider Cn1cc(-c2ccc(-c3cnc(N)c4ccc(N5CCOC5=O)cc34)cc2)cn1 [Compound 65] . Its measured microsomal CLint at 1 µM is 14

Just so you know, measured microsomal CLint at 1 µM for Cn1cc(-c2ccc(-c3cncc4ccc(C(=O)N5CC(F)(F)C5)nc34)cc2)cn1 [Compound 14] came out at 111

get_value(item= Cn1cc(-c2ccc(-c3cncc4ccc(-c5ncco5)cc34)cc2)cn1 [Compound 32] , readout=microsomal CLint at 1 µM) returns 81

For record Cn1cc(-c2ccc(-c3cncc4ccc(-c5ncco5)nc34)cc2)cn1 [Compound 25] the listed microsomal CLint at 1 µM is 48

Looking up Cn1cc(-c2ccc(-c3cncc4ccc(C(=O)N5CCC5)nc34)cc2)cn1 [Compound 12] , I see its microsomal CLint at 1 µM listed as 38

Recorded microsomal CLint at 1 µM (compound Cn1cc(-c2ccc(-c3cncc4ccc(C(=O)N5CC(F)(F)C5)cc34)cc2)cn1 [Compound 30] ): 470

get_value(item= Cn1cc(-c2ccc(-c3cncc4ccc(N5CCCS5(=O)=O)cc34)cc2)cn1 [Compound 35] , readout=microsomal CLint at 1 µM) returns 54

---

Test: in vivo
Details: mouse, iv, 0.2 mg/kg
measuredQuantity: clearance (mL/min/kg)
Express your answer in mL/min/kg, writing the number without its unit.

// field: clearance; key: COC1CN(C(=O)c2ccc3c(N)ncc(-c4ccc(-c5cnn(C)c5)cc4)c3n2)C1 [Compound 51] ; value = 32.3

---

Assay: in vivo
Details: mouse, iv, 0.2 mg/kg
measuredQuantity: Vd (L/kg)
// note: answer is a bare numeric in L/kg

Sure, the documented Vd for COC1CN(C(=O)c2ccc3c(N)ncc(-c4ccc(-c5cnn(C)c5)cc4)c3n2)C1 [Compound 51] is 1.87

---

Test: in vitro
Conditions: mouse, microsomes
measuredQuantity: microsomal CLint (µL/min/mg)
Kindly provide the numeric value in µL/min/mg only, without the unit symbol.

Lab note: measured microsomal CLint of CNC(=O)c1ccc2c(N)ncc(-c3ccc4c(c3)CS(=O)(=O)N4C)c2n1 was 94

---

A collection of compounds and their measured microsomal CLint
Test: in vitro
Conditions: rat, microsomes
Use µL/min/mg as the unit, but write only the number.

Consider COC1(C)CN(C(=O)c2ccc3c(N)ncc(-c4ccc(-c5cnn(C)c5)cc4)c3n2)C1 . Its measured microsomal CLint is 25

Looking up CNC(=O)c1ccc2c(N)ncc(-c3ccc4c(c3)CS(=O)(=O)N4C)c2n1 , I found its microsomal CLint recorded as 24

---

Assay: in vitro
Conditions: mouse, plasma
measuredQuantity: fraction unbound
Respond numerically, and do not add a unit to the figure.

Summary for this compound, COC1CN(C(=O)c2ccc3c(N)ncc(-c4ccc(-c5cnn(C)c5)cc4)c3n2)C1 : fraction unbound is 0.038

---

Assay: in vivo
Settings: rat, po, 0.5 mg/kg
measuredQuantity: bioavailability (%)
Answer in %, number only, no unit symbol.

Looking up COC1CN(C(=O)c2ccc3c(N)ncc(-c4ccc(-c5cnn(C)c5)cc4)c3n2)C1 , I found its bioavailability recorded as 57

---

Test: in vitro
Settings: rat, microsomes
The label depends only on microsomal CLint at 1 µM: rule met if it is at least 100 µL/min/mg, rule not met if it is smaller.

Examples from the recorded data:
>>> answerlabel("Cn1cc(-c2ccc(-c3cnc(N)c4ccc(C(=O)N5CC(F)(F)C5)nc34)cc2)cn1")
"rule not met"
>>> answerlabel("Cn1cc(-c2ccc(-c3cncc4ccc(C(=O)N5CCNCC5)nc34)cc2)cn1")
"rule met"
>>> answerlabel("Cn1cc(-c2ccc(-c3cncc4ccc(-c5ncco5)cc34)cc2)cn1")
"rule not met"
>>> answerlabel("CNC(=O)c1ccc2cncc(-c3ccc4c(c3)CS(=O)(=O)N4)c2n1")
"rule not met"

Reported microsomal CLint at 1 µM at or above 100 µL/min/mg? Cn1cc(-c2ccc(-c3cnc(N)c4ccc(C(=O)NC5CC5)cc34)cc2)cn1
rule not met

Identify whether the reported microsomal CLint at 1 µM of the following molecule is 100 µL/min/mg or greater: Cn1cc(-c2ccc(-c3cnc(N)c4ccc(C(=O)N5CC(C)(F)C5)cc34)cc2)cn1
rule not met

# check: microsomal CLint at 1 µM of Cn1cc(-c2ccc(-c3cncc4ccc(-c5ccn(C)n5)nc34)cc2)cn1 is greater than or equal to 100 µL/min/mg
rule met

Check this molecule for microsomal CLint at 1 µM at or above 100 µL/min/mg: CNC(=O)c1ccc2cncc(-c3ccc4c(cnn4C)c3)c2n1
rule met

Reported microsomal CLint at 1 µM at or above 100 µL/min/mg? Cn1cc(-c2ccc(-c3cnc(N)c4ccc(C(=O)N5CC(F)(F)C5)cc34)cc2)cn1
rule not met

---

Target: UniProt Q06278
measuredQuantity: AO substrate (Enzyme assay)

Consider the following illustrative entries.
>>> measurement("Cn1cc(-c2ccc(-c3cncc4ccc(C(=O)NC5CC5)cc34)cc2)cn1")
"Yes"
>>> measurement("Cn1cc(-c2ccc(-c3cnc(N)c4ccc(C(=O)NC5CC5)cc34)cc2)cn1")
"No"
>>> measurement("Cn1cc(-c2ccc(-c3cnc(N)c4ccc(N5CCOC5=O)cc34)cc2)cn1")
"No"
>>> measurement("COC1CN(C(=O)c2ccc3cncc(-c4ccc(-c5cnn(C)c5)cc4)c3c2)C1")
"Yes"
>>> measurement("CC(=O)Nc1ccc2cncc(-c3ccc(-c4cnn(C)c4)cc3)c2c1")
"Yes"
>>> measurement("CNC(=O)c1ccc2c(N)ncc(-c3ccc4c(c3)CS(=O)(=O)N4C)c2n1")
"No"

The recorded AO substrate (Enzyme assay) with UniProt Q06278 for Cn1cc(-c2ccc(-c3cncc4ccc(-c5nccn5C)nc34)cc2)cn1 was Yes

# lookup: COC1CN(C(=O)c2ccc3c(N)ncc(-c4ccc(-c5cnn(C)c5)cc4)c3n2)C1 on UniProt Q06278, AO substrate (Enzyme assay) = No

Tested system UniProt Q06278; AO substrate (Enzyme assay) recorded for CNC(=O)c1ccc2cncc(-c3ccc4c(c3)CS(=O)(=O)N4C)c2n1 was Yes

For the compound Cn1cc(-c2ccc(-c3cncc4ccc(N5CCOC5=O)cc34)cc2)cn1 , the measured AO substrate (Enzyme assay) on UniProt Q06278 was Yes

Bench note, UniProt Q06278: entry COC1CN(C(=O)c2ccc3cncc(-c4ccc(-c5cnn(C)c5)cc4)c3n2)C1 , its AO substrate (Enzyme assay) = Yes
